What log10 of IC50 was measured for each of the following?
System: KMS12PE Bcl2 R129L
Experiment: In vitro cytotoxicity CellTiterGlo 72 h, KMS12PE Bcl2 R129L
Assay type: cell-based
Conditions: Homo sapiens, KMS-12-PE, read-out: C50 nM, KMS12PE Bcl2 R129L
log10 IC50, nM

Challenge: Give the reported value of log10 of IC50 for this record: Cc1c(N(C(=O)c2cc(-c3cc4c(cc3C(=O)N3Cc5ccccc5C[C@H]3C)CN(C(=O)Cc3ccc(N5CCN6CCOC[C@@H]6C5)cc3F)CC4)n(C)c2C)c2ccc(O)cc2)cc(C#N)n1C
Response given: 0.28

Challenge: Consider the molecule CC1(C)CCC(CN2CCN(c3ccc(C(=O)NS(=O)(=O)c4ccc(NCC5CCOCC5)c([N+](=O)[O-])c4)c(Oc4cnc5[nH]ccc5c4)c3)CC2)=C(c2ccc(Cl)cc2)C1 [ABT199, Venetoclax, reference compound] and give its recorded log10 of IC50.
Response given: 1.63

Challenge: // Input: Cc1c(N(C(=O)c2cc(-c3cc4c(cc3C(=O)N3Cc5ccccc5C[C@H]3C)CN(C(=O)Cc3ccc(OCCN5CCC(F)CC5)cc3)CC4)n(C)c2C)c2ccc(O)cc2)cc(C#N)n1C . Output its log10 of IC50 only.
Response given: 0.38

Challenge: Return log10 of IC50 (reported value) for this molecule: Cc1c(N(C(=O)c2cc(-c3cc4c(cc3C(=O)N3Cc5ccccc5C[C@H]3C)CN(C(=O)Cc3ccc(CCN5CCC(F)(F)CC5)cc3)CC4)n(C)c2C)c2ccc(O)cc2)cc(C#N)n1C
Response given: 0.51

Challenge: Answer with the recorded log10 of IC50 for the molecule listed here: Cc1c(N(C(=O)c2cc(-c3cc4c(cc3C(=O)N3Cc5ccccc5C[C@H]3CN3CCCCC3)CN(C(=O)Cc3ccc(OCCN5CCOCC5)cc3F)CC4)n(C)c2C)c2ccc(O)cc2)cc(C#N)n1C
Response given: 0.00

###

I'd be grateful if you could share measured TR_FRET EKI G101V/WT selectivty ratio for these entries.
Test system: BCL2 G101V
Assay: TR-FRET competitive binding assay, BCL2 G101V
Design: species or system human
Conditions: ratio Ki BCL2 G101V / Ki BCL2 WT
Give only the figure.

Challenge: Provide TR_FRET EKI G101V/WT selectivty ratio value for the following compound: Cc1c(N(C(=O)c2cc(-c3cc4c(cc3C(=O)N3Cc5ccccc5C[C@H]3CN3CCCC[C@@H]3C)CN(C(=O)Cc3ccc(OCCN5CCOCC5)cc3F)CC4)n(C)c2C)c2ccc(O)cc2)cc(C#N)n1C
Response given: 5.4

Challenge: Tell me TR_FRET EKI G101V/WT selectivty ratio reported for Cc1c(N(C(=O)c2cc(-c3cc4c(cc3C(=O)N3Cc5ccccc5C[C@H]3CN3CCCCC3)CN(C(=O)Cc3ccc(OCCN5CCN(CCF)CC5)cc3)CC4)n(C)c2C)c2ccc(O)cc2)cc(C#N)n1C
Response given: 5.1

Challenge: Assign TR_FRET EKI G101V/WT selectivty ratio to the following record: Cc1c(C(=O)N(c2ccccc2)c2ccnn2C)cc(-c2cc3c(cc2C(=O)N2Cc4ccccc4C[C@H]2C)CN(C(=O)Cc2ccc(OCCN4CCOCC4)cc2)CC3)n1C
Response given: 109.9
